Values compiled from patent US20220227745A1.

- Assayed Target: FXR LBD, GST (Homo sapiens, UniProt Q96RI1)
- Construct: FXR LBD, GST; purchased Invitrogen PV4834
- Procedure Summary: FXR Binding Assay (TR-FRET, Fluorescein-SRC2-2 coactivator peptide)
- Run Conditions: % Activity relative to positive control
Measured Attribute: Pct Effect (Emax %)
I only need the number, in %, no unit after it.

Worked set:
- Compound: "Cn1cc(C(=O)O)c2ccc(N3CC4CC3CN4CCc3c(-c4c(Cl)cccc4Cl)noc3C3CC3)cc21 (stereo not shown) [Example I29]"
  Assayed Target: "FXR LBD, GST (Homo sapiens, UniProt Q96RI1)"
  Pct Effect (Emax %): 68.08
- Compound: "Cn1cc(C(=O)O)c2cc(F)c(N3CCN(CCc4c(-c5c(Cl)cccc5Cl)noc4C4CC4)CC3)cc21 [Example I45]"
  Assayed Target: "FXR LBD, GST (Homo sapiens, UniProt Q96RI1)"
  Pct Effect (Emax %): 161.70
- Compound: "Cn1cc(C(=O)O)c2cc(F)c(N3CCN(CCc4c(-c5c(Cl)cccc5Cl)noc4C4CC4)CC3)cc21 [Example I42]"
  Assayed Target: "FXR LBD, GST (Homo sapiens, UniProt Q96RI1)"
  Pct Effect (Emax %): 196.20

In the following, a different compound is considered.
Data point: Cn1cc(C(=O)O)c2ccc(N3CC4CC3CN4CCc3c(-c4c(Cl)cccc4Cl)noc3C3CC3)cc21 (stereo not shown) [Example I48] ; Pct Effect (Emax %) = 124.90

###

- Assayed Target: FXR LBD, GST (Homo sapiens)
- Construct: FXR LBD, GST
- Sequence (Q96RI1 262-486 limits assumed): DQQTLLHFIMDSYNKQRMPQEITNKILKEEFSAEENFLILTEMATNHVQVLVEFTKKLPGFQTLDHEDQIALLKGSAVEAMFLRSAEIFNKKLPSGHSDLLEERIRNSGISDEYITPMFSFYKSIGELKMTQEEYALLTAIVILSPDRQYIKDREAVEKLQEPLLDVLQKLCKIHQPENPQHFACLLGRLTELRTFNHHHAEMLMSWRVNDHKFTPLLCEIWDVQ
- Procedure Summary: FXR Binding Assay (TR-FRET, Fluorescein-SRC2-2 coactivator peptide)
- Run Conditions: TR-FRET FXR LBD coactivator recruitment
Measured Attribute: EC50 (nM)
I only need the number, in nM, no unit after it.

- Compound: "CC1CN(CCc2c(-c3c(Cl)cccc3Cl)noc2C2CC2)CCN1c1ccc2c(C(=O)O)cn(C)c2c1 (stereo not shown) [Example I12]"
  Measured Attribute: "EC50"
  Value Observed: 133

Data point: COC(=O)c1ccc2cc(N3CCN(CCc4c(-c5c(Cl)cccc5Cl)noc4C4CC4)C(C)C3)ccc2n1 (stereo not shown) [Example I53] ; EC50 = 436

Data point: C[C@@H]1CN(CCc2c(-c3c(Cl)cccc3Cl)noc2C2CC2)C[C@@H](C)N1c1ccc2c(C(=O)O)cn(C)c2c1 [Example I44] ; EC50 = 401

Data point: O=C(O)c1ccc2nc(N3C4CCC3CN(CCc3c(-c5c(Cl)cccc5Cl)noc3C3CC3)C4)sc2c1 [Example I33] ; EC50 = 97

###

- Assayed Target: hFXR-LBD (FXR-GAL4 chimeric receptor) (Homo sapiens, UniProt Q96RI1)
- Construct: host or cells: HEK293T
- Procedure Summary: FXR Transactivation Assay (GAL4 luciferase reporter in HEK293T cells)
- Assay type: cell-based
pEC50: −log10 of the molar value.
Kindly return true if reported pEC50 is no lower than 6; return false if it is lower.

- Compound: "Cn1cc(C(=O)O)c2cc(F)c(N3CCN(CCc4c(-c5c(Cl)cccc5Cl)noc4C4CC4)CC3)cc21 [Example I45]"
  Class Name: "true"
- Compound: "CC1CN(c2ccc3c(C(=O)O)cn(C)c3c2)CCN1CCc1c(-c2c(Cl)cccc2Cl)noc1C1CC1 (centres unmarked)"
  Class Name: "true"
- Compound: "Cn1cc(C(=O)O)c2cc(F)c(N3CCN(CCc4c(-c5c(Cl)cccc5Cl)noc4C4CC4)CC3)cc21 [Example I42]"
  Class Name: "true"
- Compound: "O=C(O)c1ccc2cc(N3CCN(CCc4c(-c5c(Cl)cccc5Cl)noc4C4CC4)CC3)ccc2n1"
  Class Name: "true"

// next entry
State whether the measured pEC50 reaches 6, counting equality as reaching it, for COc1cccc(Cl)c1-c1noc(C2CC2)c1CCN1CCN(c2ccc3c(C(=O)O)cn(C)c3c2)CC1
false
